# procedure text: Study 1: single escalating oral dose pharmacokinetics, fed and fasted
# Assay type: in vivo, human
# stated conditions: human, plasma, po, 400 mg, 400 mg single oral dose, fed; geometric mean; read-out: VSS/F
parameter measured: Vd/F (L)
# value in L; strip the unit string

Req: Can you look up the measured Vd/F of CCC(CC)c1cc(C)nc2c(-c3sc(N4CCOCC4)nc3Cl)c(C)nn12 for me?
Resp: 6580

* * *

# procedure text: Study 1: single escalating oral dose pharmacokinetics, fed and fasted
# Assay type: in vivo, human
# stated conditions: human, plasma, po, 50 mg, 50 mg single oral dose, fed; geometric mean; read-out: VZ/F
parameter measured: Vd/F

Req: Reported Vd/F for CCC(CC)c1cc(C)nc2c(-c3sc(N4CCOCC4)nc3Cl)c(C)nn12 : what is it?
Resp: 13500 L
